- System: Plasmodium falciparum
- METHOD NOTES: GSK_TCMDC: Inhibition of Plasmodium falciparum 3D7 in whole erythrocytes, using parasite LDH activity as an index of growth.
- Format: functional, organism-based
- CONDITION SUMMARY: Plasmodium falciparum, 3D7
MEASUREMENT LABEL: XC50 (nM)

>  <COMPOUND>
O=C(NCCCN1CCC(N2CCCCC2)CC1)C1=Cc2cc(Br)ccc2OC1

>  <MEASUREMENT LABEL>
XC50

>  <UNITS LABEL>
nM

>  <OBSERVED>
853

$$$$
>  <COMPOUND>
O=C1CSc2ccc(CNC3CCN(CCc4c(Cl)cnc5ccc(F)cc45)CC3)nc2N1

>  <MEASUREMENT LABEL>
XC50

>  <UNITS LABEL>
nM

>  <OBSERVED>
427

$$$$
>  <COMPOUND>
COc1ccc2ncc(F)c([C@H](O)CN3CCC(NCc4ccc5c(c4)NC(=O)CO5)CC3)c2c1

>  <MEASUREMENT LABEL>
XC50

>  <UNITS LABEL>
nM

>  <OBSERVED>
172

$$$$
>  <COMPOUND>
O=C(/C=C/c1ccc([N+](=O)[O-])cc1)NC1CCC(CN2CCC(c3c[nH]c4ccccc34)CC2)CC1 (centres undefined)

>  <MEASUREMENT LABEL>
XC50

>  <UNITS LABEL>
nM

>  <OBSERVED>
794

$$$$
>  <COMPOUND>
O=C(CC1CCCCC1)NCC(NCCCNc1cc(=O)c2ccccc2[nH]1)c1cc(Br)cc(Br)c1 (centres undefined)

>  <MEASUREMENT LABEL>
XC50

>  <UNITS LABEL>
nM

>  <OBSERVED>
1050

$$$$
>  <COMPOUND>
COc1ccc2ccccc2c1C=NN=c1cc(C)[nH]c2c(C)cccc12

>  <MEASUREMENT LABEL>
XC50

>  <UNITS LABEL>
nM

>  <OBSERVED>
818

$$$$
>  <COMPOUND>
CCO[C@H]1CN[C@H](C#Cc2cc3c(Nc4ccc(OCc5cccc(F)c5)c(Cl)c4)ncnc3s2)C1

>  <MEASUREMENT LABEL>
XC50

>  <UNITS LABEL>
nM

>  <OBSERVED>
939

$$$$
>  <COMPOUND>
O=C(Nc1cccc(-c2cccc(CN3CCCC3)c2)c1)c1cccc(Cl)c1

>  <MEASUREMENT LABEL>
XC50

>  <UNITS LABEL>
nM

>  <OBSERVED>
1180

$$$$
>  <COMPOUND>
CC(C)CNCc1ccc(-c2cccc(CN(CCN(C)C)C(=O)CCC3CCCC3)c2)cc1

>  <MEASUREMENT LABEL>
XC50

>  <UNITS LABEL>
nM

>  <OBSERVED>
809

$$$$
